Measurement target: T1, Bcl-w
T1 chain: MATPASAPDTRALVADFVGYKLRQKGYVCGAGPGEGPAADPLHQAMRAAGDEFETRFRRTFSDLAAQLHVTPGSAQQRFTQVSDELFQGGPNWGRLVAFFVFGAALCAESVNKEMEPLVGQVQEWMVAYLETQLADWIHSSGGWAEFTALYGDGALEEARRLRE
Experimental details: competition phage ELISA
# IC50 values compiled below
Please don't drop the unit; write it after the number.

>>> print(df.to_string())
                                     binder  measured_result
0  QEDIIRNIARHLAQVGDSMARSIPPG (M13 phage display: FLAG-26mer-GGGT-g3(249-406)) [Bid BH3 D20A, phage-displayed]            24 nM
1  QEDAIRNIARHLAQVGDSMDRSIPPG (M13 phage display: FLAG-26mer-GGGT-g3(249-406)) [Bid BH3 I4A, phage-displayed]            23 nM
2  QEDIIANIARHLAQVGDSMDRSIPPG (M13 phage display: FLAG-26mer-GGGT-g3(249-406)) [Bid BH3 R6A, phage-displayed]            42 nM
3  QEDIIRNIARHLAQVGDSMDRSIAPG (M13 phage display: FLAG-26mer-GGGT-g3(249-406)) [Bid BH3 P24A, phage-displayed]            25 nM

Now, please, on to the next binder.
Q: Bench note: what IC50 did AEDIIRNIARHLAQVGDSMDRSIPPG (M13 phage display: FLAG-26mer-GGGT-g3(249-406)) [Bid BH3 Q1A, phage-displayed] show?
Result: 29 nM
